The reader will find reported log10(IC50) values listed item by item below.
- Test system: Mycobacterium tuberculosis
- method-notes: Antimycobacterial activity against Mycobacterium tuberculosis H37Rv after 6 days by luciferase reporter gene assay
- Assay type: functional, organism-based
- assay-context: 144 h
Recorded IC50 (log10, µM)

Below are worked cases with known answers.
Lab note: measured log10(IC50) of NNC(=O)c1ccncc1 was -1.40

Noted for Fc1ccc(/N=N/Nc2ccc(F)cc2C(F)(F)F)c(C(F)(F)F)c1 : its log10(IC50) reads 1.93

***
Short answer for COc1ccc(/C=C/C(=O)N(/N=N/c2cc(C(F)(F)F)ccc2Cl)c2cc(C(F)(F)F)ccc2Cl)c(OC)c1 : log10(IC50) was 1.86

Measured log10(IC50) of FC(F)(F)c1cc(Cl)ccc1/N=N/Nc1ccc(Cl)cc1C(F)(F)F : 1.97

Looking up COc1cc(/C=C/C(=O)N(/N=N/c2ccc(Cl)c(C(F)(F)F)c2)c2ccc(Cl)c(C(F)(F)F)c2)cc(OC)c1 , I see its log10(IC50) listed as 1.85

Measured log10(IC50), FC(F)(F)c1ccc(Cl)c(N=NNc2cc(C(F)(F)F)ccc2Cl)c1 : 1.99

---

- System: Mycobacterium tuberculosis
- method-notes: Antimycobacterial activity against Mycobacterium tuberculosis H37Rv after 6 days by luciferase reporter gene assay
- Assay type: functional, organism-based
- assay-context: 144 h
reported-endpoint: pIC50
// pIC50: -log10(molar conc.)

For record Fc1ccc(C(F)(F)F)cc1/N=N/Nc1cc(C(F)(F)F)ccc1F the listed pIC50 is 4.23

Continuing:
Form field pIC50, entry COc1ccc(/C=C/C(=O)N(/N=N/c2ccc(Cl)cc2C(F)(F)F)c2ccc(Cl)cc2C(F)(F)F)c(OC)c1 : 4.08

So for N#Cc1c(F)cccc1/N=N/Nc1cccc(F)c1C#N , the logged pIC50 turned out to be 4.21

The compound identified as COc1ccc(/C=C/C(=O)N(/N=N/c2ccc(Cl)c(C(F)(F)F)c2)c2ccc(Cl)c(C(F)(F)F)c2)c(OC)c1 registered its pIC50 at 4.28

Source of measurements: ChEMBL document CHEMBL3232765
